Biological target: Rat GPR132 (Rattus norvegicus)
Sequence (A0A8I6A964 1-384): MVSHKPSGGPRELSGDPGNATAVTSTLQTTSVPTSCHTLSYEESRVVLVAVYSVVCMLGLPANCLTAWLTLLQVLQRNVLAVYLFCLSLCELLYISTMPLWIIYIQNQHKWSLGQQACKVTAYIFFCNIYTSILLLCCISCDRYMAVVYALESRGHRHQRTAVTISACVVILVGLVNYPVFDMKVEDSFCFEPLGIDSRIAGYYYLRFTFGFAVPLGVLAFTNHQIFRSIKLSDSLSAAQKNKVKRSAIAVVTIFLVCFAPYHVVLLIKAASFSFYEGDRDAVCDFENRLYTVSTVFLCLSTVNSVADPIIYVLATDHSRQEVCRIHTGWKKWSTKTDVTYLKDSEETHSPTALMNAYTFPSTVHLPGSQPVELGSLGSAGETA
Assay: Yeast pheromone-response pathway reporter assay, yeast expressing rGPR132
Format: cell-based
Settings: normalized to the effect of 9‐HODE
assay-readout: Emax, Rat GPR132, Yeast (%)
Form entry: value (%) — number only.

>  <compound>
CCCCC/C=C\C/C=C\CCCCCCCC(N)=O [Linoleamide, linoleamide]

>  <system-under-test>
Rat GPR132 (Rattus norvegicus)

>  <Emax, Rat GPR132, Yeast [%]>
37

$$$$
>  <compound>
CCCCC/C=C\C=C\C(O)CCCCCCCC(=O)O (centres unmarked) [9‐HODE, 9‐hydroxyoctadecadienoic acid]

>  <system-under-test>
Rat GPR132 (Rattus norvegicus)

>  <Emax, Rat GPR132, Yeast [%]>
100

$$$$
>  <compound>
CCCCCCCCCCCCCCCC(=O)NCC(=O)O [NPGly, N‐palmitoylglycine]

>  <system-under-test>
Rat GPR132 (Rattus norvegicus)

>  <Emax, Rat GPR132, Yeast [%]>
53

$$$$

Query: Need Emax, Rat GPR132, Yeast of CCCCC/C=C\C/C=C\C/C=C\C/C=C\CCCC(=O)NCC(=O)O [NAGly, N‐arachidonoylglycine] , thanks.
Reply: 87

Query: Need Emax, Rat GPR132, Yeast of CCCCC/C=C\C/C=C\CCCCCCCC(=O)NCC(=O)O [NLGly, N‐linoleoylglycine] , thanks.
Reply: 68

----------
Target: hGPR132a (Homo sapiens)
Experiment: β‐arrestin association
Assay type: cell-based
Conditions: mean ± SD
assay-readout: pEC50, Human GPR132a, β‐arrestin

Query: Need pEC50, Human GPR132a, β‐arrestin of `CC/C=C\C/C=C\C/C=C\C/C=C\C/C=C\C/C=C\CCC(=O)NCC(=O)O` , thanks.
Reply: <5 (2)

Query: Need pEC50, Human GPR132a, β‐arrestin of `CCCCCCCCCCCCCCCC(=O)NCC(=O)O` , thanks.
Reply: <5 (3)

Query: Need pEC50, Human GPR132a, β‐arrestin of `CCCCCCCC/C=C\CCCCCCCC(=O)NCC(=O)O` , thanks.
Reply: 5.6 ± 0.18 (2)

Query: Need pEC50, Human GPR132a, β‐arrestin of CCCCC/C=C\C/C=C\CCCCCCCC(N)=O [Linoleamide, linoleamide] , thanks.
Reply: 5.5 (1)

Query: Need pEC50, Human GPR132a, β‐arrestin of `CCCCCCCCCCCCCCCCCC(=O)NCC(=O)O` , thanks.
Reply: 5.4 (1)

Query: Need pEC50, Human GPR132a, β‐arrestin of `CCCCC/C=C\C/C=C\CCCCCCCC(=O)NCC(=O)O` , thanks.
Reply: 5.5 ± 0.23 (2)

----------
Target: hGPR132a (Homo sapiens)
Test: β‐arrestin association
Type: cell-based
assay-readout: EC50

Query: Need EC50 of CCCCC/C=C\C/C=C\CCCCCCCC(=O)O [Linoleic acid] , thanks.
Reply: > 10 µM

----------
Listing of recorded Emax, Human GPR132a, β‐arrestin by entry.
Molecular target: hGPR132a (Homo sapiens, UniProt Q9UNW8)
Sequence (Q9UNW8 1-380): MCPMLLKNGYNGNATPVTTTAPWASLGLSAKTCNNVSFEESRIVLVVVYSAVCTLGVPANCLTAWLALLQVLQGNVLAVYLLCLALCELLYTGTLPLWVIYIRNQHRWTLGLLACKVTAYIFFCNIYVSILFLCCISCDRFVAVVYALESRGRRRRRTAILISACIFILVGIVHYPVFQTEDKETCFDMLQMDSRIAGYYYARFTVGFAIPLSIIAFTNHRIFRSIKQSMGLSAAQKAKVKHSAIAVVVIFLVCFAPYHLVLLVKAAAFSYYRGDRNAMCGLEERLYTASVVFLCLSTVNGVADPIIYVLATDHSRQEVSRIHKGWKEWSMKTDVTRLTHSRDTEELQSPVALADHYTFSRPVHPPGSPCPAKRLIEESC
Experiment: β‐arrestin association
Type: cell-based
Settings: normalized to the effect of SB‐583831
Form entry: value (%) — number only.

Sample answers from the record:
>  <molecule>
CCCCC/C=C\C/C=C\CCCCCCCC(N)=O [Linoleamide, linoleamide]

>  <system-under-test>
hGPR132a (Homo sapiens, UniProt Q9UNW8)

>  <Emax, Human GPR132a, β‐arrestin [%]>
22

$$$$
>  <molecule>
CCCCCCCC/C=C\CCCCCCCC(=O)NCC(=O)O [NOGly, N‐oleoylglycine]

>  <system-under-test>
hGPR132a (Homo sapiens, UniProt Q9UNW8)

>  <Emax, Human GPR132a, β‐arrestin [%]>
29

$$$$
>  <molecule>
CCCCCCCCCCCCCCCC(=O)NCC(=O)O [NPGly, N‐palmitoylglycine]

>  <system-under-test>
hGPR132a (Homo sapiens, UniProt Q9UNW8)

>  <Emax, Human GPR132a, β‐arrestin [%]>
14

$$$$

Now examine the next entry.
Query: Need Emax, Human GPR132a, β‐arrestin of CCCCCCCCCCCCCCCCCC(=O)NCC(=O)O [NSGly, N‐stereoylglycine] , thanks.
Reply: 23

----------
Biological target: hGPR132a (Homo sapiens, UniProt Q9UNW8)
Format: cell-based
assay-readout: pEC50
pEC50 field: float, defined as -log10 of concentration (mol/L).

Query: Query the reported pEC50 for hGPR132a (Homo sapiens, UniProt Q9UNW8); item: `CCCCCCC(C)(C)c1ccc([C@@H]2C[C@H](O)CC[C@H]2CCCO)c(O)c1`
Reply: 5.50

----------
Biological target: Rat GPR132 (Rattus norvegicus)
Experiment: Yeast pheromone-response pathway reporter assay, yeast expressing rGPR132
Assay type: cell-based
Settings: mean ± SD
assay-readout: pEC50, Rat GPR132, Yeast

>  <compound>
CCCCC/C=C\C/C=C\CCCCCCCC(N)=O [Linoleamide, linoleamide]

>  <pEC50, Rat GPR132, Yeast>
5.9 ± 0.21 (2)

$$$$
>  <compound>
CCCCC/C=C\C=C\C(O)CCCCCCCC(=O)O (stereo not drawn) [9‐HODE, 9‐hydroxyoctadecadienoic acid]

>  <pEC50, Rat GPR132, Yeast>
6.2 ± 0.12 (5)

$$$$
>  <compound>
CCCCC/C=C\C/C=C\C/C=C\C/C=C\CCCC(=O)NCC(=O)O

>  <pEC50, Rat GPR132, Yeast>
5.3 ± 0.09 (4)

$$$$

Query: Need pEC50, Rat GPR132, Yeast of `CCCCC/C=C\C/C=C\CCCCCCCC(=O)NCC(=O)O` , thanks.
Reply: 6.5 ± 0.36 (4)

Query: Need pEC50, Rat GPR132, Yeast of `CCCCCCCCCCCCCCCC(=O)NCC(=O)O` , thanks.
Reply: 7.0 ± 0.12 (4)

Query: Need pEC50, Rat GPR132, Yeast of `CCCCC/C=C\C/C=C\C/C=C\C/C=C\CCCC(=O)N[C@@H](Cc1ccc(O)cc1)C(=O)O` , thanks.
Reply: <4 (3)

----------
Listing of recorded pEC50, Human GPR132a, Yeast by entry.
Biological target: hGPR132a (Homo sapiens, UniProt Q9UNW8)
Format: cell-based
Settings: mean ± SD; IA = inactive, bound = top concentration tested

Sample answers from the record:
>  <compound>
CCCCCCCC/C=C\CCCCCCCC(=O)N[C@@H](CO)C(=O)O

>  <reported>
5.8 ± 0.07 (4)

$$$$
>  <compound>
CCCCC/C=C\C/C=C\CCCCCCCC(N)=O [Linoleamide, linoleamide]

>  <reported>
5.8 ± 0.01 (3)

$$$$
>  <compound>
CCCCCCCCCCCCCCCCCC(=O)NCC(=O)O

>  <reported>
5.1 ± 0.08 (3)

$$$$
>  <compound>
CCCCCCCC/C=C\CCCCCCCC(=O)NCC(=O)O

>  <reported>
5.1 ± 0.24 (3)

$$$$
>  <compound>
CCCCC/C=C\C/C=C\CCCCCCCC(=O)NCC(=O)O

>  <reported>
5.8 ± 0.08 (3)

$$$$
>  <compound>
CCCCC/C=C\C=C\C(O)CCCCCCCC(=O)O (stereo not drawn) [9‐HODE, 9‐hydroxyoctadecadienoic acid]

>  <reported>
5.9 ± 0.14 (4)

$$$$
>  <compound>
CCCCCCCCCCCCCCCC(=O)NCC(=O)O

>  <reported>
6.2 ± 0.16 (7)

$$$$
>  <compound>
CC/C=C\C/C=C\C/C=C\C/C=C\C/C=C\C/C=C\CCC(=O)NCC(=O)O

>  <reported>
<4.4 (4)

$$$$

Query: Need pEC50, Human GPR132a, Yeast of `CCCCC/C=C\C/C=C\C/C=C\C/C=C\CCCC(=O)NCC(=O)O` , thanks.
Reply: <4.5 (3)

----------
Molecular target: hGPR132a (Homo sapiens)
Assay type: cell-based
Conditions: normalized to the effect of NPGly
We label by threshold. Values of Emax, Human GPR132a, Yeast strictly beneath 80% are Criterion met. Values of 80% and up are Criterion not met.

>  <molecule>
CCCCC/C=C\C/C=C\CCCCCCCC(=O)NCC(=O)O [NLGly, N‐linoleoylglycine]

>  <assigned-category>
Criterion not met

$$$$

Query: Lab note: Emax, Human GPR132a, Yeast threshold 80%. Does this molecule come in strictly under it? CCCCC/C=C\C/C=C\C/C=C\C/C=C\CCCC(=O)NCC(=O)O [NAGly, N‐arachidonoylglycine]
Reply: Criterion met

Query: Lab note: Emax, Human GPR132a, Yeast threshold 80%. Does this molecule come in strictly under it? CCCCCCCC/C=C\CCCCCCCC(=O)N[C@@H](CO)C(=O)O [NOSer, N‐oleoylserine]
Reply: Criterion met

Query: Lab note: Emax, Human GPR132a, Yeast threshold 80%. Does this molecule come in strictly under it? CC/C=C\C/C=C\C/C=C\C/C=C\C/C=C\C/C=C\CCC(=O)NCC(=O)O [NDGly, N‐docosahexanoylglycine]
Reply: Criterion met

Query: Lab note: Emax, Human GPR132a, Yeast threshold 80%. Does this molecule come in strictly under it? CCCCCCCC/C=C\CCCCCCCC(=O)NCC(=O)O [NOGly, N‐oleoylglycine]
Reply: Criterion not met
